TARGET: UniProt:Q13304
Sequence (Q13304 whole entry): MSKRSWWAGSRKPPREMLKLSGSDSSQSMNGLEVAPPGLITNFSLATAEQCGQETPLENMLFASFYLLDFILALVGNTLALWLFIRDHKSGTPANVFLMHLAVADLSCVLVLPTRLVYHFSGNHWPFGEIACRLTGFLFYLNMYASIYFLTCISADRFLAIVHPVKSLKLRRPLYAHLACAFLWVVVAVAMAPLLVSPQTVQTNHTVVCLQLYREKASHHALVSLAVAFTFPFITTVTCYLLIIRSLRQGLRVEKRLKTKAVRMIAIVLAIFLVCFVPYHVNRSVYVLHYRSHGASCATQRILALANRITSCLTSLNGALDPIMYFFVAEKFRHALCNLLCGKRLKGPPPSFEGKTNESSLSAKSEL
PROTOCOL DESCRIPTION: Calcium mobilization functional assay (Fluo-8, FLIPR TETRA) in HEK-293 hGPR17 (Gα-q assay)
ASSAY SETUP: antagonism of MDL29,951 (~EC80) induced Ca2+ signal; cell line (HEK-293 hGPR17 or HEK-293 Suchi5 hGPR17) not given
OBSERVATION TYPE: IC50

Q: Supply recorded IC50 for O=S(=O)(Nc1cc(F)c(OC(F)F)cc1F)c1c[nH]c(-c2ccccc2Cl)c1 here.
Result: 500 to 5000 nM

Q: Give the value of IC50 reported for the following: O=S(=O)(Nc1c(F)cc(C(F)(F)F)cc1F)c1c[nH]c(-c2ccccc2)c1
Result: 500 to 5000 nM

Q: Report measured IC50; entry is N#Cc1ccc(NS(=O)(=O)c2c[nH]c(-c3cncs3)c2)c(F)c1
Result: < 500 nM

Q: Let me know recorded IC50 for O=S(=O)(Nc1cc(F)c(C(F)(F)F)cc1F)c1c[nH]c(-c2cccc(Cl)n2)c1 , thanks.
Result: < 500 nM

Q: Return value of IC50 for input O=S(=O)(Nc1cc(F)c(OCC(F)F)cc1F)c1c[nH]c(-c2ccccc2)c1 , no commentary.
Result: 500 to 5000 nM

Q: In one line, give reported IC50 of the entry O=S(=O)(Nc1cc(F)c(OC(F)F)cc1F)c1c[nH]c(-c2cnsc2)c1 .
Result: < 500 nM

Q: Provide only the value of recorded IC50 for COc1ccc(F)cc1-c1cc(S(=O)(=O)Nc2ccc(C#N)cc2F)c[nH]1
Result: 500 to 5000 nM

Q: Name the recorded IC50 of the compound listed here: N#Cc1cc(F)c(NS(=O)(=O)c2c[nH]c(-c3cccc4ccoc34)c2)cc1F
Result: < 500 nM

Q: Give the reported IC50 for this compound. O=S(=O)(Nc1cc(F)c(OC(F)F)cc1F)c1c[nH]cc1Cc1ccccc1
Result: < 500 nM

Q: For O=S(=O)(Nc1cc(F)c(OC(F)F)cc1F)c1c[nH]c(-c2ncc(C(F)(F)F)s2)c1 , write its IC50.
Result: 500 to 5000 nM

Q: // Input: O=S(=O)(Nc1ccc(C(F)(F)F)cc1F)c1c[nH]c(-c2ccccn2)c1 . Output its IC50 only.
Result: 500 to 5000 nM

Q: Read off the recorded IC50 for O=S(=O)(Nc1cc(F)c(C(F)(F)F)cc1F)c1c[nH]c(-c2csc(Cl)c2)c1
Result: 500 to 5000 nM

Q: Quickly give me recorded IC50 for O=S(=O)(Nc1cc(F)c(OC(F)F)cc1F)c1c[nH]c(-c2ncccc2F)c1
Result: < 500 nM

Q: Look up and state reported IC50 for N#Cc1ccc(NS(=O)(=O)c2c[nH]c(-c3c(F)cccc3Cl)c2)c(F)c1
Result: < 500 nM

Q: Determine from records and report IC50 for O=S(=O)(Nc1cc(F)c(Cl)cc1F)c1c[nH]c(-c2ccccn2)c1
Result: < 500 nM

Q: Give the reported IC50 for this compound. N#Cc1ccc(NS(=O)(=O)c2c[nH]c(-c3c(F)cc(F)cc3F)c2)c(F)c1
Result: < 500 nM

Q: Read off the recorded IC50 for O=S(=O)(Nc1cc(F)c(C(F)(F)F)cc1F)c1c[nH]c(-c2ccsc2)c1
Result: < 500 nM

Q: Read off the recorded IC50 for O=S(=O)(Nc1cc(F)c(C(F)(F)F)cc1F)c1c[nH]c(-c2ncccc2Br)c1
Result: < 500 nM

Q: Please look at this compound and report its IC50: Cc1ncccc1NS(=O)(=O)c1c[nH]c(-c2ccccc2)c1
Result: 500 to 5000 nM

Q: Answer with the recorded IC50 for the compound listed here: N#Cc1cc(F)c(NS(=O)(=O)c2c[nH]c(-c3cccc4ccsc34)c2)cc1F
Result: < 500 nM

Q: Tell me measured IC50 for Cn1cccc(-c2cc(S(=O)(=O)Nc3cc(F)c(C(F)(F)F)cc3F)c[nH]2)c1=O please.
Result: < 500 nM

Q: Return value of IC50 for input COc1csc(-c2cc(S(=O)(=O)Nc3cc(F)c(C#N)cc3F)c[nH]2)n1 , no commentary.
Result: < 500 nM

Q: Name the recorded IC50 of the compound listed here: COc1nc(Cl)c(F)cc1NS(=O)(=O)c1c[nH]cc1Cc1ccccc1
Result: 500 to 5000 nM

Q: Report measured IC50; entry is O=S(=O)(Nc1cc(F)c(C(F)(F)F)cc1F)c1c[nH]c(-c2cnsc2)c1
Result: < 500 nM

Q: Answer with reported IC50 of O=S(=O)(Nc1cccc2c1OCO2)c1c[nH]c(-c2ccccn2)c1
Result: 500 to 5000 nM

Q: Tell me its IC50 given COc1cccc(-c2c[nH]cc2S(=O)(=O)Nc2ccc(C#N)cc2F)c1 as the entry.
Result: 500 to 5000 nM

Q: Fill in IC50 for record N#Cc1ccc(NS(=O)(=O)c2c[nH]c(-c3ncccc3CF)c2)c(F)c1
Result: 500 to 5000 nM

Q: // Input: COc1nc(Cl)c(F)cc1NS(=O)(=O)c1c[nH]c(-c2ccccc2)c1 . Output its IC50 only.
Result: < 500 nM

Q: Look up IC50 of N#Cc1cc(F)c(NS(=O)(=O)c2c[nH]c(-c3ccccc3)c2F)cc1F and report it.
Result: < 500 nM

Q: Specify IC50 for Cc1noc(C)c1-c1cc(S(=O)(=O)Nc2cc(F)c(C(F)(F)F)cc2F)c[nH]1 and stop.
Result: 500 to 5000 nM

Q: For N#Cc1ccc(NS(=O)(=O)c2c[nH]c(C3CCC3)c2)c(F)c1 , write its IC50.
Result: 500 to 5000 nM

Q: In one line, give reported IC50 of the entry O=S(=O)(Nc1cc(F)c(C(F)(F)F)cc1F)c1c[nH]c(-c2cc(Cl)ccc2F)c1 .
Result: 500 to 5000 nM

Q: Give the measured IC50 for COc1cccc(Cc2c[nH]cc2S(=O)(=O)Nc2cc(F)c(OC(F)F)cc2F)c1
Result: < 500 nM

Q: Assign IC50 to the following record: N#Cc1ccc(NS(=O)(=O)c2c[nH]cc2C2CCCC2)c(F)c1
Result: 5000 to 50000 nM

Q: Supply reported IC50 belonging to this compound: Cc1cc(NS(=O)(=O)c2c[nH]c(-c3ccccc3)c2)ccc1C#N
Result: 500 to 5000 nM

Q: For the compound O=S(=O)(Nc1cc(F)c(OC(F)F)cc1F)c1c[nH]cc1Cc1ccccc1F , report IC50.
Result: < 500 nM
